biological target: cortisone reductase of human adipose cell (11βHSD1) (Homo sapiens); assay: Inhibitory activity assay against cortisone reductase activity of cultured human adipocytes; settings: differentiated normal human preadipocytes (HPrAD-vis), 100 nM [1,2-3H] cortisone, 37° C.
pIC50: −log10 of the molar value.
property: pIC50

-- ask Return reported pIC50. Input compound: O=C(N[C@H]1C2CC3CC1C[C@](O)(C3)C2)N1[C@@H]2CC[C@H]1C[C@H](Oc1ccccc1)C2 [compound 2]
-- reply > 9.00

-- ask Return reported pIC50. Input compound: O=C(NC1C2CC3CC1CC(O)(C3)C2)N1C2CCC1CC(Oc1ccc(F)cn1)C2 (stereo not shown) [Example 409]
-- reply > 8.52

-- ask Return reported pIC50. Input compound: O=C(NC1C2CC3CC1CC(O)(C3)C2)N1C2CCC1CC(Oc1cc(F)c(F)c(F)c1)C2 (stereo not shown) [Example 383]
-- reply > 8.52

-- ask Return reported pIC50. Input compound: Cc1ccnc(C2CC3CCC(C2)N3C(=O)NC2C3CC4CC2CC(O)(C4)C3)c1 (stereo not shown) [compound 241]
-- reply > 8.52

* * *

Provide the recorded IC50 for the entries that follow.
Biological target: cortisone reductase of human adipose cell (11βHSD1) (Homo sapiens, UniProt P28845)
Sequence (P28845 whole entry): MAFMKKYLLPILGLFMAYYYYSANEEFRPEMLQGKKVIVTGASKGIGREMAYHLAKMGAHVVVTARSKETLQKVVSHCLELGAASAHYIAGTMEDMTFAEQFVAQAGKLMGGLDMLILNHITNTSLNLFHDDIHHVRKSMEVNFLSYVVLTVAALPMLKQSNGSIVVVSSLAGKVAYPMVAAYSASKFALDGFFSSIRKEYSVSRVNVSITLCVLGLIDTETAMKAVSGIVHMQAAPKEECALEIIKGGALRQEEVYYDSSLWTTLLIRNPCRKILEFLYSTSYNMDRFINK
Test: Inhibitory activity assay against cortisone reductase activity of cultured human adipocytes
Conditions: differentiated normal human preadipocytes (HPrAD-vis), 100 nM [1,2-3H] cortisone, 37° C.
Description: Normal human preadipocytes (HPrAD-vis, manufactured by Cambrex corporation) were inoculated onto a 48-well cell culture plate, and the differentiation induction was carried out according to Protocol attached to the kit. […] After the exposure was completed, the imaging plate was analyzed by Bioimage Analyzer (BAS2500, Fujifilm) and the [^3H] radioactivity on the part corresponding to the position of cortisol developed on the TLC plate. […]
Answer with a number only, understood to be in nM.

-- ask Return reported IC50. Input compound: O=C(N[C@H]1C2CC3CC1C[C@](O)(C3)C2)N1[C@@H]2CC[C@H]1CC(COc1ccccc1)C2 (stereo partly shown)
-- reply 19

-- ask Return reported IC50. Input compound: O=C(NC1C2CC3CC1CC(O)(C3)C2)N1C2CCC1CC(OC1CCN(c3ccc(F)cn3)CC1)C2 (stereo not shown)
-- reply 15

* * *

target: cortisone reductase of human adipose cell (11βHSD1) (Homo sapiens, UniProt P28845); assay: Inhibitory activity assay against cortisone reductase activity of cultured human adipocytes; conditions: differentiated normal human preadipocytes (HPrAD-vis), 100 nM [1,2-3H] cortisone, 37° C.
property: IC50 (nM)
Answer with a number only, understood to be in nM.

-- ask Return reported IC50. Input compound: O=C(NC1C2CC3CC1CC(O)(C3)C2)N1C2CCC1CC(Oc1ncccc1C(F)F)C2 (centres unmarked) [Example 336]
-- reply 8.4

-- ask Return reported IC50. Input compound: O=C(NC1C2CC3CC1CC(O)(C3)C2)N1C2CCC1CC(Oc1ccc3c(c1)OC(F)(F)O3)C2 (centres unmarked) [Example 378]
-- reply 14

-- ask Return reported IC50. Input compound: O=C(NC1C2CC3CC1CC(O)(C3)C2)N1C2CCC1CC(Oc1cc(OCC(F)(F)F)ccn1)C2 (centres unmarked) [Example 373]
-- reply 17

-- ask Return reported IC50. Input compound: Cc1cnc(C)c(OC2CC3CCC(C2)N3C(=O)NC2C3CC4CC2CC(O)(C4)C3)n1 (centres unmarked) [Example 306]
-- reply 6.3

-- ask Return reported IC50. Input compound: O=C1CCc2ccc(OC3CC4CCC(C3)N4C(=O)NC3C4CC5CC3CC(O)(C5)C4)cc21 (centres unmarked) [Example 390]
-- reply 11

* * *

biological target: cortisone reductase of mouse adipose cell (11βHSD1) (Mus musculus, UniProt P50172); construct: The medium of adipocytes which were differentiated and induced as mentioned above were replaced; endogenous in cells; experiment: Inhibitory activity assay against cortisone reductase of mouse primary adipocytes; settings: differentiated ICR mouse visceral fat primary adipocytes, 100 nM [1,2-3H] cortisone, 37° C.
Sequence (P50172 whole entry): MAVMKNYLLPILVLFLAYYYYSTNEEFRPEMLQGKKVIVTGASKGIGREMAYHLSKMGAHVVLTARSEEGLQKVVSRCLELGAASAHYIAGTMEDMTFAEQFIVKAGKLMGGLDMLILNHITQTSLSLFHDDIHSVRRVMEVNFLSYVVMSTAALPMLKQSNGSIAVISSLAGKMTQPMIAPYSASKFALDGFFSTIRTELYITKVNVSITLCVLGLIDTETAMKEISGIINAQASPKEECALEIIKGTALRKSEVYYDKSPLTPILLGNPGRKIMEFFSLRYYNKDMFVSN
pIC50: −log10 of the molar value.
property: pIC50

-- ask Return reported pIC50. Input compound: O=C(NC1C2CC3CC1CC(O)(C3)C2)N1C2CCC1CC(Oc1cc(C(F)(F)F)ccn1)C2 (stereo not drawn)
-- reply > 9.00

-- ask Return reported pIC50. Input compound: Cc1cccc(N2CCC(OC3CC4CCC(C3)N4C(=O)NC3C4CC5CC3CC(O)(C5)C4)CC2)c1 (stereo not drawn)
-- reply > 8.52

-- ask Return reported pIC50. Input compound: O=C(NC1C2CC3CC1CC(O)(C3)C2)N1C2CCC1CC(Oc1ncc(C(F)F)cc1Cl)C2 (stereo not drawn)
-- reply > 8.52

-- ask Return reported pIC50. Input compound: O=C(NC1C2CC3CC1CC(O)(C3)C2)N1C2CCC1CC(Oc1cccc(COCC(F)(F)F)c1)C2 (stereo not drawn)
-- reply > 8.52

-- ask Return reported pIC50. Input compound: CCc1cccnc1OC1CC2CCC(C1)N2C(=O)NC1C2CC3CC1CC(O)(C3)C2 (stereo not drawn)
-- reply > 8.52

-- ask Return reported pIC50. Input compound: O=C(NC1C2CC3CC1CC(O)(C3)C2)N1C2CCC1CC(Oc1ncccc1F)C2 (stereo not drawn)
-- reply > 8.52

* * *

biological target: cortisone reductase of human adipose cell (11βHSD1) (Homo sapiens, UniProt P28845); test: Inhibitory activity assay against cortisone reductase activity of cultured human adipocytes; conditions: differentiated normal human preadipocytes (HPrAD-vis), 100 nM [1,2-3H] cortisone, 37° C.
Provide the recorded IC50 for the entries that follow.

-- ask Return reported IC50. Input molecule: O=C(NC1C2CC3CC1CC(O)(C3)C2)N1C2CCC1CC(Oc1ncccc1C1CC1)C2 (stereo not drawn)
-- reply < 3 nM

-- ask Return reported IC50. Input molecule: O=C(NC1C2CC3CC1CC(O)(C3)C2)N1C2CCC1CC(Oc1cc(OC(F)F)ccn1)C2 (stereo not drawn)
-- reply < 3 nM

-- ask Return reported IC50. Input molecule: COc1cccc(OC2CC3CCC(C2)N3C(=O)NC2C3CC4CC2CC(O)(C4)C3)c1Cl (stereo not drawn)
-- reply < 3 nM

Origin of the recorded values: patent US8933229B2
